# MEASUREMENT_DESCRIPTION: qHTS assay for identifying genotoxic compounds that show differential cytotoxicity against isogenic chicken DT40 cell lines with known DNA damage response pathways - Rad54/Ku70 mutant cell line (AID 743015); further: nearly all actives have a fitted effect of over 60% in size
# RECORDED_CONDITIONS: DT40 Rad54/Ku70 mutant viability, CellTiter-Glo, 40 h; series mostly up to 66.8 µM
Records with an inconclusive call do not appear. The source made the active and inactive calls. The call rests on the fitted dose curve; in most records, active means well fitted cell-killing curve with a large enough effect in the repeat runs; inconclusive means weak or mixed curves; inactive means no such curve, though single readings can be large or run the other way.
Returns: one label drawn from active, inactive

Sample answers from the record:
MOLECULE: CN(C)CCc1c[nH]c2ccc(C[C@H]3COC(=O)N3)cc12
CLASS_LABEL: inactive
--
MOLECULE: CCCOc1ccc(C(=O)OCCN(CC)CC)cc1N
CLASS_LABEL: active
--
MOLECULE: CCOc1ccccc1OCCN[C@H](C)Cc1ccc(OC)c(S(N)(=O)=O)c1
CLASS_LABEL: inactive

-- ask Outcome? "Cc1nc2ccc(Cl)cc2[nH]1"
-- reply inactive

-- ask Field entry: "NC(=O)CC[C@@H](N)C(=O)O"
-- reply inactive

-- ask Then what about the molecule "Cc1ccc(Br)cc1" ?
-- reply inactive

-- ask Please do the same for "CC[N+](C)(CC)CC" as well.
-- reply inactive

-- ask Item: "c1coc(Cn2cccc2)c1"
-- reply inactive

-- ask Further, for "O=C(O)COc1ccc2ccccc2c1" ?
-- reply inactive

-- ask Now this one: O=C1CC2(CCCC2)CC(=O)N1CCNCC1COc2ccccc2O1 (stereo unspecified)
-- reply active

-- ask Same again, this time with "O=Cc1ccc(C(=O)O)cc1"
-- reply inactive

This collection of values is drawn from PubChem BioAssay (Tox21).
